# Test Target: human 11βHSD1 enzyme (Homo sapiens)
# Construct: baculovirus expressed N terminal 6-His tagged full length human 11βHSD1 enzyme; 6-His (N); made in house
# Sequence (P28845 whole entry): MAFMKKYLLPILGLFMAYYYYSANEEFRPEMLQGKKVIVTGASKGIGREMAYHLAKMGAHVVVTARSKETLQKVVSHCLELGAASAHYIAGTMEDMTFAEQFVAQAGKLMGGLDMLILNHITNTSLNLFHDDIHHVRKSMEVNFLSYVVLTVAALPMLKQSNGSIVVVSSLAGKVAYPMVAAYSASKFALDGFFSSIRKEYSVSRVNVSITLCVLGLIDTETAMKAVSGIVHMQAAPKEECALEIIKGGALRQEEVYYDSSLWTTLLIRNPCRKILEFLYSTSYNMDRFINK
# Assay Method Text: 11βHSD1 cortisone to cortisol conversion, competitive HTRF assay
# Assay type: biochemical
# Measurement Conditions: human 11-βHSD; test concentration of 30 μM of compound
Each item that follows carries a reported inhibition at 30 µM.
Note: state the figure and append the unit.

A selection of reference data follows.
# Compound, Measured Parameter, Value Measured
records = [
    ("O=C(N[C@H]1C2CC3CC1C[C@@](O)(C3)C2)c1cnc(NC2CC2)nc1[C@@H]1CCCO1 [Example 180]", "inhibition at 30 µM", "98.8%"),
    ("CSc1ncc(C(=O)N[C@H]2C3CC4CC2C[C@@](O)(C4)C3)c([C@H]2CCCO2)n1 [Example 166]", "inhibition at 30 µM", "102%"),
    ("CC(C)Nc1ncc(C(=O)N[C@H]2C3CC4CC2C[C@@](O)(C4)C3)c(C2CCCO2)n1 (stereo partly shown) [Example 159]", "inhibition at 30 µM", "98.2%"),
    ("O=C(N[C@H]1C2CC3CC1C[C@@](O)(C3)C2)c1cnc(NC2CCS(=O)(=O)CC2)nc1C1CC1 [Example 68]", "inhibition at 30 µM", "98.3%"),
]

Dear colleague, I am looking for the recorded inhibition at 30 µM of the following compound: O=C(N[C@H]1C2CC3CC1C[C@@](O)(C3)C2)c1cnc(NC2CCC2)nc1C1CCCO1 (stereo partly shown) [Example 162] 97.7%

Next record, please: CS(=O)(=O)N1CCN(c2ncc(C(=O)N[C@H]3C4CC5CC3C[C@@](O)(C5)C4)c(C3CC3)n2)CC1 [Example 70] 98%

Another compound to check: C[C@@H]1CN(c2ncc(C(=O)N[C@H]3C4CC5CC3C[C@@](O)(C5)C4)c(C3CCC3)n2)C[C@H](C)N1 [Example 99] 93.3%

###

# Test Target: human 11βHSD1 enzyme (Homo sapiens)
# Construct: baculovirus expressed N terminal 6-His tagged full length human 11βHSD1 enzyme; 6-His (N); made in house
# Assay Method Text: 11βHSD1 cortisone to cortisol conversion, competitive HTRF assay
# Type: biochemical
# Measurement Conditions: human 11-βHSD; test concentration of 30 μM of compound
Measured Parameter: inhibition at 30 µM (%)
Form entry: value (%) — number only.

Observe how each entry below is paired with its result.
# Molecule, Result Units, Value Measured
measured = [
    ("O=C(N[C@H]1C2CC3CC1C[C@@](O)(C3)C2)c1cnc(N2CCOCC2CO)nc1C1CC1 (stereo partly shown) [Example 60]", "%", 95.1),
    ("CCCSc1nc(N2C[C@@H](C)O[C@@H](C)C2)ncc1C(=O)N[C@H]1C2CC3CC1C[C@@](O)(C3)C2 [Example 23]", "%", 97.4),
    ("Cc1ncc(C(=O)N[C@H]2C3CC4CC2C[C@@](O)(C4)C3)c(C2CCCO2)n1 (stereo partly shown) [Example 158]", "%", 96.5),
]

Can you look up the measured inhibition at 30 µM of C[C@H]1COCCN1c1ncc(C(=O)N[C@H]2C3CC4CC2C[C@@](O)(C4)C3)c(C2CCCC2)n1 [Example 123] for me? 99.1

// query: C[C@@H]1CN(c2ncc(C(=O)N[C@H]3C4CC5CC3C[C@@](O)(C5)C4)c(C3CCC3)n2)C[C@H](C)O1 [Example 92] 97.1

Another molecule to look at: O=C(N[C@H]1C2CC3CC1C[C@@](O)(C3)C2)c1cnc(N2CCSCC2)nc1C1CCCC1 [Example 114] 106

And O=C(N[C@H]1C2CC3CC1C[C@@](O)(C3)C2)c1cnc(NC2COC2)nc1C1CCC1 [Example 104] ? 99.3
